- Tested on: 354836-022-R-J1-PDC multicell spheroid viability;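 also: spheroids exposed to agents for seven days before the viability read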
- Method Notes: Anticancer human tumor 354836-022-R-J1-PDC patient-derived head and neck squamous cell carcinoma cell line growth inhibition [PI3K]
- Condition Label: second compound 1 µM; first compound 0.0316 µM; active compounds read low
Criterion: viability, T/C strictly under 50%. Met: Y. Not met: N.

{"columns": ["Molecule", "Study Target", "Assigned Category"],
 "data": [
  ["CC(C)NCC(C(=O)N1CCN(c2ncnc3c2C(C)CC3O)CC1)c1ccc(Cl)cc1 (stereo unspecified) + CC(Nc1ncnc2nc[nH]c12)c1cc2cccc(Cl)c2c(=O)n1-c1ccccc1", "354836-022-R-J1-PDC multicell spheroid viability", "N"],
  ["CC(=O)c1c(C)c2cnc(Nc3ccc(N4CCNCC4)cn3)nc2n(C2CCCC2)c1=O + COc1c(OCCCN2CCOCC2)ccc2c3n(c(=NC(=O)c4cnc(N)nc4)nc12)CCN3", "354836-022-R-J1-PDC multicell spheroid viability", "Y"],
  ["CCCS(=O)(=O)Nc1ccc(F)c(C(=O)c2c[nH]c3ncc(-c4ccc(Cl)cc4)cc23)c1F + CC(Nc1ccc2c(c1)OCCn1cc(N3C(=O)OCC3C(F)F)nc1-2)C(N)=O", "354836-022-R-J1-PDC multicell spheroid viability", "N"],
  ["CC1(C)CCC(Nc2ncc(C(F)(F)F)c(-c3c[nH]c4c(P(C)(C)=O)c(C#N)ccc34)n2)CN1 (stereo unspecified) + CC(Nc1ncnc2nc[nH]c12)c1cc2cccc(Cl)c2c(=O)n1-c1ccccc1", "354836-022-R-J1-PDC multicell spheroid viability", "Y"],
  ["C#Cc1c(F)ccc2cc(O)cc(-c3ncc4c(N5CC6CCC(C5)N6)nc(OCC56CCCN5CC(F)C6)nc4c3F)c12 (stereo unspecified) + CC(Nc1ncnc2nc[nH]c12)c1cc2cccc(Cl)c2c(=O)n1-c1ccccc1", "354836-022-R-J1-PDC multicell spheroid viability", "N"],
  ["CC(C)n1nc(-c2ccc3oc(N)nc3c2)c2c(N)ncnc21 + COc1c(OCCCN2CCOCC2)ccc2c3n(c(=NC(=O)c4cnc(N)nc4)nc12)CCN3", "354836-022-R-J1-PDC multicell spheroid viability", "Y"]
]}
